- PROTOCOL NOTES: gradient 5% acetonitrile 3 min, to 50% in 2 min, to 85% in 15 min, held 3 min, 100 µL/min
- MEASUREMENT CONTEXT: column: Zorbax Extend-C18 2.1 x 50 mm; eluents: water / acetonitrile, 0.1% formic acid
Readings of RP-LC retention time for the listed compounds

| COMPOUND | RP-LC retention time (s) |
| --- | --- |
| O=C(Cn1ncc2c(c1=O)N(C1CC1)C(=O)CS2)NCCC1=CCCCC1 | 754 |
| CCn1cnc(S(=O)(=O)N2CCCC(C(=O)Nc3cccc(CN4CCCC4)c3)C2)c1 (centres undefined) | 607 |
| COc1cccc(NC(=O)N2CCc3nc(-c4ccccc4)ncc3C2)c1 | 884 |
| Cc1noc(-c2ccc(-n3ncc(C(=O)NCCc4c[nH]c5ccccc45)c3C)nc2)n1 | 898 |
| CCN(Cc1ccccc1)c1ncc(NC(=O)c2ccccc2Cl)cc1C(=O)O | 723 |
| Cc1ccn2cc(CC(=O)Nc3ccc(F)cc3)nc2c1 | 595 |
| CC(C)Oc1ccc(CNC(=O)c2sc3ncccc3c2-n2cccc2)cc1 | 1110 |
| Cc1ccc(N2CC(c3noc(-c4ccccc4OC(F)(F)F)n3)CC2=O)cc1 (centres undefined) | 819 |
| CCOC(=O)C1CCN(C(=O)c2sc3ncn(CC(=O)N4CCCCC4C)c(=O)c3c2C)CC1 (centres undefined) | 776 |
| CCn1c(=O)sc2cc(S(=O)(=O)N3CCC(C(=O)NCc4ccc(C)cc4)CC3)ccc21 | 932 |
| COc1ccc(C2Cn3nnc(C(=O)N4CCC(C(=O)NC5CC5)CC4)c3CO2)cc1 (centres undefined) | 699 |
| COc1cc(NC(=O)Nc2cccc(-c3nccnc3N3CCCC3)c2)cc(OC)c1 | 596 |
| CCc1nc2cc(-c3noc(COc4cccc(C)c4)n3)ccc2o1 | 1280 |
| CSc1nnc(-c2nn(C)c3c2CN(C(=O)c2ccc(C)cc2)CC3)n1C | 716 |
| Cn1ncc2c3ccccc3n(CC(=O)N3CCN(C(=O)c4ccco4)CC3)c2c1=O | 668 |
| Fc1ccc(-c2nnc(Cc3nc(-c4ccc5c(c4)OCO5)no3)o2)cc1 | 957 |
| CSc1cccc(NC(=O)N2CCC(c3nc(C(=O)N4CCCCC4)c(C)o3)CC2)c1 | 828 |
| CCc1cccc(NS(=O)(=O)c2cc(-c3[nH]ncc3C(=O)N3CCCC3)oc2C)c1 | 760 |
| Cc1ccc(NS(=O)(=O)c2n[nH]c(C)c2C(=O)NCc2ccc(F)cc2F)cc1 | 821 |

----------
In this section we review reported RP-LC retention time values for a set of compounds.
- PROTOCOL NOTES: gradient 5% acetonitrile 3 min, to 50% in 2 min, to 85% in 15 min, held 3 min, 100 µL/min
- MEASUREMENT CONTEXT: column: Zorbax Extend-C18 2.1 x 50 mm; eluents: water / acetonitrile, 0.1% formic acid

| COMPOUND | RP-LC retention time |
| --- | --- |
| COC(=O)c1cc2ccsc2n1Cc1ccccc1C#N | 1030 s |
| O=C(N[C@H]1C[C@@H]2C[C@H]1CN2C(=O)c1ccoc1)c1ccccc1 | 663 s |
| O=C(NCc1cccc(F)c1)C1c2ccccc2CCN1C(=O)C1CC1 (centres undefined) | 840 s |
| Fc1cc(F)cc(-c2nnc(Cc3nc(-c4cccc(C(F)(F)F)c4)no3)o2)c1 | 851 s |
| CCCc1cc(C2CCCN2C(=O)Cc2ccc(OC)c(OC)c2)no1 (centres undefined) | 760 s |
| CCc1ccc(N2CC(c3nc(-c4cc(OC)c(OC)c(OC)c4)no3)CC2=O)cc1 (centres undefined) | 988 s |
| CC1(C(=O)NCCc2c[nH]c3ccccc23)CCCCC(=O)N1 (centres undefined) | 656 s |
| COc1ccccc1CNC(=O)Cn1c(=O)c2cc(-c3ccco3)nn2c2ncccc21 | 797 s |
| Cc1ccc(CNC(=O)C2CCN(c3nc(C4CCC4)nc4csc(C)c34)CC2)cc1C | 808 s |
| Cc1cccc2c(=O)n(C3CCN(C(=O)Nc4cccc(C(F)(F)F)c4)CC3)cnc12 | 952 s |
| CCc1ccc(C(=O)CC2(O)C(=O)Nc3c(C)cccc32)cc1 (centres undefined) | 807 s |
| CCN1CCN(C(=O)CCC(=O)N2CCc3c(c(C(=O)N4CCCC4)nn3C)C2)CC1 | 563 s |
| C[C@@]1(c2cc(-c3cncnc3)c(F)cc2F)CCSC(N)=N1 | 654 s |
| O=C(NCc1ccccc1)C1CCN(S(=O)(=O)c2cc(C(=O)N3CCCCCC3)cs2)CC1 | 866 s |
| COc1cc(Cc2nc(-c3ccc4nnc(C)n4c3)no2)cc(OC)c1 | 796 s |
| Cc1sc(-c2noc(C(C)C)n2)cc1S(=O)(=O)N1CCC(C(=O)NC2CCCCCC2)CC1 | 1140 s |
| COC(=O)c1ccccc1NC(=O)N(Cc1cc(=O)[nH]c2ccccc12)CC(C)C | 943 s |
| COc1ccc(N(Cc2nc3nc(C)c(Cl)c(C)n3n2)C(=O)c2ccco2)cc1 | 824 s |
| Cc1ccc(CNC(=O)C2CCCN(c3nc4c(s3)c(C)nn4-c3ccc(F)cc3)C2)o1 (centres undefined) | 1100 s |
